System: UO-31
Conditions: read-out: Median Lethal Concentration (LC50); Renal Cancer, UO-31; 48 hours, SRB assay
propertyLabel: CC50 (µM)
Numbers only, in µM.

Return value of CC50 for input "O=C1C(=Cc2ccccc2O)COCC1=Cc1ccccc1O" , no commentary. 68.1

====

Tested on: RPMI-7951 human melanoma
Experiment: Neutral Red Assay, cell viability, RPMI-7951
Conditions: RPMI-7951; 20 μM; DMSO = 100
propertyLabel: Cell Viability
Number first, unit second.

Worked examples, 5 compounds total:
[O-][S+](/C=C/c1ccccc1)/C=C/c1ccccc1 [EF13, E,E-3,5-Bisbenzylidenesulfoxide]; 92%
COc1cc(C=C2CCCC(=Cc3ccc(O)c(OC)c3)C2=O)ccc1O [MD10]; 42%
COc1ccc(/C=C/C(=O)/C=C/c2ccc(OC)c(OC)c2)cc1OC [MD6]; 42%
C(=C\c1ccccc1)/S/C=C/c1ccccc1 [EF15]; 111%
COc1ccc(CCC(O)CCc2ccc(OC)c(OC)c2)cc1OC [MD279L, 1,5-Bis(3,4-dimethoxyphenyl)penta-3-ol]; 109%

Lab note: each compound below needs its Cell Viability filled in.
1. COc1ccc(CCC(=O)CCc2ccc(OC)c(OC)c2)cc1OC [MD279U, 1,5-Bis(3,4-dimethoxyphenyl)penta-3-one]
2. COc1ccc(C=CC(=O)C=Cc2ccc(OC)cc2)cc1 [BA-4]
3. [O-][S+](/C=C\c1ccccc1)/C=C/c1ccccc1 (racemic) [EF14, E,Z3,5-Bisbenzylidenesulfoxide]
4. COc1ccc(C=CC(=O)c2ccccc2)cc1OC [BA-3]

1. 113%
2. 84%
3. 86%
4. 102%
